Property: Inhibition at 20 μM; scope: individual compounds
system: Botrytis cinerea (B05.10); assay: Resazurin antifungal assay of 180 alpha-factor peptide variants towards Botrytis (Example 2); format: cell-based; details: % inhibition of fungal growth, Botrytis conidia, peptide 20 μM, resazurin
Peptide text beside a SMILES is read from it.

COMPOUND	MEASUREMENT TARGET	Inhibition at 20 μM
CC[C@H](C)[C@H](NC(=O)[C@H](Cc1c[nH]cn1)NC(=O)[C@@H](N)Cc1c[nH]c2ccccc12)C(=O)N[C@@H](CC(C)C)C(=O)N[C@@H](CCCNC(=N)N)C(=O)N[C@@H](Cc1ccccc1)C(=O)N[C@@H](CCCCN)C(=O)N[C@@H](CC(N)=O)C(=O)NCC(=O)N[C@@H](CCSC)C(=O)N1CCC[C@H]1C(=O)N[C@@H](CCSC)C(=O)N[C@@H](Cc1ccc(O)cc1)C(=O)O [compound 105] (H-WHILRFKNGMPMY-OH; N-terminus and C-terminus assumed)	Botrytis cinerea (B05.10)	<90%

Please look at the following compound next.
For the compound CSCC[C@H](NC(=O)CNC(=O)[C@H](CCC(N)=O)NC(=O)CNC(=O)[C@H](CC(N)=O)NC(=O)[C@H](CCCCN)NC(=O)[C@H](CC(C)C)NC(=O)[C@H](C)NC(=O)[C@@H](NC(=O)[C@H](Cc1c[nH]c2ccccc12)NC(=O)[C@H](Cc1c[nH]cn1)NC(=O)[C@@H](N)Cc1c[nH]c2ccccc12)C(C)C)C(=O)N[C@@H](Cc1ccc(O)cc1)C(=O)O [compound 23] (H-WHWVALKNGQGMY-OH; N-terminus and C-terminus assumed) , what Inhibition at 20 μM is on record? <90%

* * *

test system: Botrytis cinerea (B05.10); assay: Resazurin antifungal assay of 180 alpha-factor peptide variants towards Botrytis (Example 2); format: cell-based; details: % inhibition of fungal growth, Botrytis conidia, peptide 100 μM, resazurin
Peptide text beside a SMILES is read from it.
MEASURE NAME: Inhibition at 100 μM

Can you look up the measured Inhibition at 100 μM of CC[C@H](C)[C@H](NC(=O)[C@H](Cc1c[nH]c2ccccc12)NC(=O)[C@H](CCC(=O)O)NC(=O)[C@@H]1CCCN1)C(=O)N[C@@H](CCC(N)=O)C(=O)N[C@@H](CC(C)C)C(=O)N[C@@H](CCCCN)C(=O)N[C@H](C(=O)NCC(=O)N[C@@H](CCSC)C(=O)N1CCC[C@H]1C(=O)N[C@@H](CCSC)C(=O)N[C@@H](Cc1ccc(O)cc1)C(=O)O)[C@@H](C)O [compound 40] (H-PEWIQLKTGMPMY-OH; N-terminus and C-terminus assumed) for me? <90%

Return reported Inhibition at 100 μM; argument: CSCC[C@H](NC(=O)CNC(=O)[C@H](CCC(N)=O)NC(=O)CNC(=O)[C@@H]1CCCN1C(=O)[C@H](CCCCN)NC(=O)[C@H](Cc1ccccc1)NC(=O)[C@H](CCC(=O)O)NC(=O)[C@H](CC(C)C)NC(=O)[C@H](CC(=O)O)NC(=O)[C@H](Cc1c[nH]cn1)NC(=O)[C@@H]1CCCN1)C(=O)N[C@@H](Cc1ccc(O)cc1)C(=O)O [compound 126] (H-PHDLEFKPGQGMY-OH; N-terminus and C-terminus assumed) <90%

* * *

test system: Botrytis cinerea (B05.10); assay: Resazurin antifungal assay of 180 alpha-factor peptide variants towards Botrytis (Example 2); type: cell-based; details: % inhibition of fungal growth, Botrytis conidia, peptide 20 μM, resazurin
Peptide text beside a SMILES is read from it.
MEASURE NAME: Inhibition at 20 μM (%)
Express your answer in %, writing the number without its unit.

COMPOUND	UNIT OF MEASUREMENT	Inhibition at 20 μM
CSCC[C@H](NC(=O)CNC(=O)[C@H](CO)NC(=O)CNC(=O)[C@@H]1CCCN1C(=O)[C@H](CCCCN)NC(=O)[C@H](CC(C)C)NC(=O)[C@H](CCCNC(=N)N)NC(=O)[C@H](CC(C)C)NC(=O)[C@H](Cc1ccc(O)cc1)NC(=O)[C@H](CCCNC(=N)N)NC(=O)[C@@H](N)Cc1c[nH]c2ccccc12)C(=O)N[C@@H](Cc1ccc(O)cc1)C(=O)O [compound 55] (H-WRYLRLKPGSGMY-OH; N-terminus and C-terminus assumed)	%	99.43

Let us examine a further case.
Query Inhibition at 20 μM on Botrytis cinerea (B05.10) for CSCC[C@H](NC(=O)[C@@H]1CCCN1C(=O)[C@H](CCC(N)=O)NC(=O)CNC(=O)[C@@H]1CCCN1C(=O)[C@H](CCCCN)NC(=O)[C@H](Cc1ccccc1)NC(=O)[C@H](CCCNC(=N)N)NC(=O)[C@H](CC(C)C)NC(=O)[C@H](Cc1ccccc1)NC(=O)[C@H](Cc1c[nH]cn1)NC(=O)[C@@H](N)CCCCN)C(=O)N[C@@H](Cc1ccc(O)cc1)C(=O)O [compound 18] (H-KHFLRFKPGQPMY-OH; N-terminus and C-terminus assumed) 99.67

* * *

System: Botrytis cinerea (B05.10)
Assay: Resazurin antifungal assay of 180 alpha-factor peptide variants towards Botrytis (Example 2)
Assay type: cell-based
Conditions: % inhibition of fungal growth, Botrytis conidia, peptide 15 μM, resazurin
Experimental: The antifungal activity of 180 alpha-factor peptide variants towards Botrytis was tested. Experimental design: […] Fungal conidia were harvested by scraping a Botrytis plate flooded with 1 ml water with 0.1% Tween 80 solution. […] The conidia concentration of the resulting solution was counted using a hemocytometer. […] Peptides were tested for activity against Botrytis, using the resazurin assay. […] Fluorescence was measured at 570/620 nm after 4 h of incubation with resazurin. […]
Peptide text beside a SMILES is read from it.
MEASURE NAME: Inhibition at 15 μM

// Inhibition at 15 μM lookup, key: CC[C@H](C)[C@H](NC(=O)[C@H](Cc1c[nH]c2ccccc12)NC(=O)[C@H](Cc1c[nH]cn1)NC(=O)[C@@H](N)CCCCN)C(=O)N[C@@H](CCCNC(=N)N)C(=O)N[C@@H](CC(C)C)C(=O)N[C@@H](Cc1c[nH]c2ccccc12)C(=O)N1CCC[C@H]1C(=O)NCC(=O)N[C@@H](CCC(N)=O)C(=O)N1CCC[C@H]1C(=O)N[C@@H](CCSC)C(=O)N[C@@H](Cc1ccc(O)cc1)C(=O)O [compound 75] (H-KHWIRLWPGQPMY-OH; N-terminus and C-terminus assumed) <90%

* * *

tested on: Botrytis cinerea (B05.10); test: Resazurin antifungal assay of 180 alpha-factor peptide variants towards Botrytis (Example 2); type: cell-based; conditions: % inhibition of fungal growth, Botrytis conidia, peptide 20 μM, resazurin
Peptide text beside a SMILES is read from it.
MEASURE NAME: Inhibition at 20 μM

Requested read-out: Inhibition at 20 μM. Entry: CC[C@H](C)[C@H](NC(=O)[C@H](Cc1c[nH]c2ccccc12)NC(=O)[C@H](Cc1c[nH]cn1)NC(=O)[C@@H](N)Cc1c[nH]c2ccccc12)C(=O)N[C@@H](CCC(N)=O)C(=O)N[C@@H](CC(C)C)C(=O)N[C@@H](CCCCN)C(=O)N[C@@H](CCCCN)C(=O)NCC(=O)N[C@@H](CCC(=O)O)C(=O)N1CCC[C@H]1C(=O)N[C@@H](CCSC)C(=O)N[C@@H](Cc1ccc(O)cc1)C(=O)O [compound 71] (H-WHWIQLKKGEPMY-OH; N-terminus and C-terminus assumed) <90%

* * *

test system: Botrytis cinerea (B05.10); assay: Resazurin antifungal assay of 180 alpha-factor peptide variants towards Botrytis (Example 2); assay type: cell-based; details: % inhibition of fungal growth, Botrytis conidia, peptide 15 μM, resazurin
Peptide text beside a SMILES is read from it.
MEASURE NAME: Inhibition at 15 μM (%)
Respond numerically; units are % and should not be typed.

Inhibition at 15 μM lookup needed for CC[C@H](C)[C@H](NC(=O)[C@H](CCCNC(=N)N)NC(=O)[C@H](CC(C)C)NC(=O)[C@H](Cc1c[nH]c2ccccc12)NC(=O)[C@H](Cc1c[nH]cn1)NC(=O)[C@@H](N)CCCCN)C(=O)N[C@@H](CCCCN)C(=O)N[C@@H](Cc1c[nH]c2ccccc12)C(=O)NCC(=O)N[C@@H](CCC(=O)O)C(=O)N1CCC[C@H]1C(=O)N[C@@H](CCSC)C(=O)N[C@@H](Cc1ccc(O)cc1)C(=O)O [compound 52] (H-KHWLRIKWGEPMY-OH; N-terminus and C-terminus assumed) , thanks. 97.66

* * *

tested on: Botrytis cinerea (B05.10); assay: Resazurin antifungal assay of 180 alpha-factor peptide variants towards Botrytis (Example 2); assay type: cell-based; conditions: % inhibition of fungal growth, Botrytis conidia, peptide 100 μM, resazurin
Peptide text beside a SMILES is read from it.
MEASURE NAME: Inhibition at 100 μM (%)
Lab book: enter the figure in %, no units written.

// query Inhibition at 100 μM value for entry CSCC[C@H](NC(=O)[C@@H]1CCCN1C(=O)[C@H](CCC(N)=O)NC(=O)CNC(=O)[C@@H]1CCCN1C(=O)[C@H](CCCCN)NC(=O)[C@H](CC(C)C)NC(=O)[C@H](CC(N)=O)NC(=O)[C@H](CC(C)C)NC(=O)[C@H](CC(C)C)NC(=O)[C@H](Cc1c[nH]cn1)NC(=O)[C@@H](N)CCCCN)C(=O)N[C@@H](Cc1ccc(O)cc1)C(=O)O [compound 113] (H-KHLLNLKPGQPMY-OH; N-terminus and C-terminus assumed) 98.44
